Biological target: Plasmodium falciparum protein kinase 6 (PK6, PF3D7_1337100) (UniProt Q8IDW1)
Experiment: PfPK6 kinase inhibitors, biochemical, TCAMS library (AID 1159586)
Conditions: recombinant PfPK6, Kinase-Glo ATP depletion luminescence
Results with a measured potency or affinity are listed apart. Active and inactive are the calls of the source. The rule behind the calls is not given here.
measure-name: outcome

Examples with their reported outcome follow.
INSERT INTO measurements (compound, subject_of_test, measure_name, test_result) VALUES
  ('CCNC(C)(C)CN(Cc1ccc(-c2ccc(C(F)(F)F)cc2)cc1)C(=O)Cn1c(SCc2ccc(F)cc2)nc(=O)c2c1CCC2', 'Plasmodium falciparum protein kinase 6 (PK6, PF3D7_1337100) (UniProt Q8IDW1)', 'outcome', 'inactive'),
  ('O=C(Nc1cccc(-c2csc(-c3nc4ccccc4[nH]3)c2)c1)c1ccncc1', 'Plasmodium falciparum protein kinase 6 (PK6, PF3D7_1337100) (UniProt Q8IDW1)', 'outcome', 'inactive'),
  ('CCN(CCCN1CCCCC1)c1cc(C)nc(Nc2ccc(C)cc2Cl)n1', 'Plasmodium falciparum protein kinase 6 (PK6, PF3D7_1337100) (UniProt Q8IDW1)', 'outcome', 'inactive'),
  ('CC(Oc1cc(-n2cnc3ccc(NC(=O)CCN4CCCCC4)cc32)sc1C(N)=O)c1ccccc1Cl (stereo not given)', 'Plasmodium falciparum protein kinase 6 (PK6, PF3D7_1337100) (UniProt Q8IDW1)', 'outcome', 'inactive'),
  ('CCCCCCN1CCC(NCc2ccc(C)cc2)CC1', 'Plasmodium falciparum protein kinase 6 (PK6, PF3D7_1337100) (UniProt Q8IDW1)', 'outcome', 'inactive');

--- query ---
Value lookup for outcome; key = `CCOc1ccc2c(NN=Cc3ccccc3OC)cc(C)nc2c1`
inactive

* * *

Biological target: Protein kinase 7 (PK7), Plasmodium falciparum 3D7 (PF3D7_0213400)
Test: inhibition of Plasmodium PK7 catalytic activity – biochemical, TCAMS antimalarial set, Kinase-Glo luminescence (AID 1159587)
Conditions: recombinant PfPK7, Kinase-Glo ATP depletion luminescence
Calls of active or inactive are those of the source. The rule behind the calls is not given here.
measure-name: outcome

Examples with their reported outcome follow.
INSERT INTO results (molecule, measure_name, test_result) VALUES
  ('COc1cc(Cc2cnc(N)nc2N)cc(OCCCCCC(N)=O)c1OC', 'outcome', 'inactive'),
  ('CCNC(=O)c1ccc(-n2nc(C)cc2-c2ccccc2)cc1', 'outcome', 'inactive'),
  ('Cc1ccc(C)c2c1[nH]c1ccc(C3=NCCN3)cc12', 'outcome', 'inactive'),
  ('c1cc(Cc2ccc(Nc3c4ccccc4nc4ccccc34)cc2)cc(Nc2c3ccccc3nc3ccccc23)c1', 'outcome', 'inactive'),
  ('Cc1[nH]c(C)c(-c2ccc(OCc3cc(F)cc(F)c3)nc2)c(=O)c1Br', 'outcome', 'inactive'),
  ('CC(C)(C)CNc1noc(-c2sccc2Br)n1', 'outcome', 'inactive'),
  ('c1ccc2c(C3CCN(CCCCOc4ccc5c(c4)CCN(CC4CC4)CC5)CC3)c[nH]c2c1', 'outcome', 'inactive'),
  ('N#Cc1cccc(-c2ccc(C(=O)Nc3ccc4c(c3)CCN(C3CCC3)CC4)cn2)c1', 'outcome', 'inactive'),
  ('COc1cccc(NC(=O)NC2CCN(c3ccnc(Nc4cc(OC)c(OC)c(OC)c4)n3)C2)c1 (stereo not given)', 'outcome', 'inactive');

--- query ---
Value lookup for outcome; key = `Cc1ccc(Nc2nc3cc(N(C)c4ccnc(Nc5cccc(CS(C)(=O)=O)c5)n4)ccc3o2)cc1`
inactive

* * *

Assignment: determine reported inhibition for the given compounds.
Molecular target: L-lactate dehydrogenase (Plasmodium falciparum (isolate CDC / Honduras))
Experiment: PfLDH activity inhibition – cell lysate, 3D7 strain, counter-screen for P. falciparum growth inhibition project (AID 2304);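 note: 0% = vehicle and 100% = reference inhibitor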
Conditions: P. falciparum 3D7 crude extract, LDH APAD/NBT absorbance; at 2 µM; active compounds read high
Quick note: give the figure in %, leave out the unit.

Value lookup for inhibition; key = CC(C)[C@H](NC(=O)c1ccc(O)c(-c2cccc(C(F)(F)F)c2)c1)C(=O)NC1CCCc2ccccc21 (stereo not given in full)
7

Value lookup for inhibition; key = `COc1ccc(NC2=C(c3ccccc3)C(=O)c3ccccc32)cn1`
2

Value lookup for inhibition; key = `NC(N)=Nc1nc(-c2ccc(NC(=O)Nc3cccc(-c4csc(N=C(N)N)n4)c3)cc2)cs1`
3

Value lookup for inhibition; key = `CNC(=O)c1cc(S(=O)(=O)Nc2ccc(OC)cc2)cs1`
-6

Value lookup for inhibition; key = `Cc1cccc(CNc2nc(C)cc(N[C@@H](Cc3ccccc3)C(=O)NCCc3ccccc3)n2)c1`
2

Value lookup for inhibition; key = `CC(=O)c1ccc(Nc2c(C(N)=O)cnc3cc(-c4c(C)noc4C)ccc23)cc1`
3

Value lookup for inhibition; key = `O=C(Nc1ccc(Cl)cc1)c1ccc(CN2CCCN(CC3CCCCC3)CC2)cc1`
0

Value lookup for inhibition; key = `COc1cccc(-c2cnc(-c3ccncc3)nc2C2CCN(Cc3ccc(NC(C)=O)cc3)CC2)c1`
0

Value lookup for inhibition; key = `Cc1cccc(NC(=O)NCc2ccccc2)n1`
-2

Value lookup for inhibition; key = `CCCCCCN1CCC(NCc2ccc(C)cc2)CC1`
-1

* * *

Biological target: L-lactate dehydrogenase (Plasmodium falciparum (isolate CDC / Honduras))
Test: PfLDH activity inhibition – cell lysate, 3D7 strain, counter-screen for P. falciparum growth inhibition project (AID 2304);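 note: 0% = vehicle and 100% = reference inhibitor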
Details: P. falciparum 3D7 crude extract, LDH APAD/NBT absorbance; at 2 µM; active compounds read high
Assignment: determine reported inhibition for the given molecules.
Quick note: give the figure in %, leave out the unit.

Value lookup for inhibition; key = `COc1nc2c(CCN3CC[C@H](NCc4ccc5c(c4)NC(=O)CO5)[C@H](O)C3)c(Cl)cnc2cc1F`
-3

Value lookup for inhibition; key = `CN1CCN(c2ccnc3ccc(NC(=O)Nc4ccc(-c5ccncc5)c5ccccc45)cc23)CC1`
-4

Value lookup for inhibition; key = `N#Cc1ccc(-c2ccc(C(=O)Nc3ccc4c(c3)CCN(C3CCC3)CC4)nc2)cn1`
-1

Value lookup for inhibition; key = `Cc1ccc(F)c(CN2CCC(N3CC(c4ccccc4)(c4ccccc4)OC3=O)CC2)c1Cl`
-4

Value lookup for inhibition; key = `Oc1ccc(CCNCCCCCCNCCc2ccc(-c3ccccc3)cc2)cc1O`
1

Value lookup for inhibition; key = Cc1cc2ccc(/C=C/C(=O)NC3CCC(CCN4CCc5ccc(C#N)cc5CC4)CC3)cc2[nH]1 (centres undefined)
-1

Value lookup for inhibition; key = `CC(=O)Nc1ccc(OCCN(Cc2ccccc2OC(F)(F)F)c2ccc(C(F)(F)F)c(C#N)c2)c(Cl)c1`
5

Value lookup for inhibition; key = `Cc1cc(NCCC(=O)NCCOc2ccccc2)nc(Nc2ccccc2)n1`
-1

Value lookup for inhibition; key = `Cc1nnsc1C(=O)Nc1cccc(-c2cccc(-c3nc4c(C)cccc4[nH]3)c2)c1`
4

* * *

Assay: human hepatoma cell viability loss – ATP luminescence, cytotoxicity control for P. falciparum antimalarial project, primary screen (AID 2303);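 note: 0% = DMSO wells and 100% = digitonin-killed cells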
Conditions: HepG2 viability, 24-48 h, at 10 µM, active compounds read high
Threshold-based label: inhibition under 20% gives Fulfilled, inhibition not under 20% gives Not fulfilled.

Quick check: inhibition of `CCc1c(CCNCCCCCCNCCc2ccc3c(c2C)OCO3)ccc2c1OCO2` under 20%?
Not fulfilled

Quick check: inhibition of COC(=O)c1ccc(CCCNCC(O)c2cccc(C(F)(F)F)c2)cc1 (stereo not given) under 20%?
Fulfilled

Quick check: inhibition of O=C(Nc1cccc(C(F)(F)F)c1)N1CCOC(CCN2CCC(c3ccccc3)CC2)(c2ccc(Cl)c(Cl)c2)C1 (stereo not given) under 20%?
Fulfilled

Quick check: inhibition of `COc1ccc2nc(C)cc(NN=Cc3ccc([N+](=O)[O-])cc3)c2c1` under 20%?
Fulfilled

Quick check: inhibition of `C[C@@H]1CN(c2cnn(C/C=C/c3ccc(NC(=O)c4ccc([N+](=O)[O-])cc4)cc3)c(=O)c2Cl)C[C@H](C)N1` under 20%?
Not fulfilled

* * *

Molecular target: L-lactate dehydrogenase (Plasmodium falciparum (isolate CDC / Honduras))
Test: PfLDH activity inhibition – cell lysate, 3D7 strain, counter-screen for P. falciparum growth inhibition project (AID 2304);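 note: 0% = vehicle and 100% = reference inhibitor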
Conditions: P. falciparum 3D7 crude extract, LDH APAD/NBT absorbance; at 2 µM; active compounds read high
Assignment: determine reported inhibition for the given molecules.
Quick note: give the figure in %, leave out the unit.

// lookup inhibition | system=L-lactate dehydrogenase (Plasmodium falciparum (isolate CDC / Honduras)) | key= `Cc1cc(Oc2ccc(-n3ccnc3)cc2)nc(N2CCN(CCCN3CCCC3)CC2)n1`
0

// lookup inhibition | system=L-lactate dehydrogenase (Plasmodium falciparum (isolate CDC / Honduras)) | key= `CN(C)C=Nc1ccc(OCCCCCCOc2ccc(N=CN(C)C)cc2)cc1`
6

// lookup inhibition | system=L-lactate dehydrogenase (Plasmodium falciparum (isolate CDC / Honduras)) | key= `COc1ccc2nc(C)cc(NN=Cc3ccccc3F)c2c1`
-4

// lookup inhibition | system=L-lactate dehydrogenase (Plasmodium falciparum (isolate CDC / Honduras)) | key= `COCCN1CCC(CNCC(C)(C)c2nc(-c3ccc(Cl)c(O)c3)c(-c3ccncc3)[nH]2)CC1`
-1

// lookup inhibition | system=L-lactate dehydrogenase (Plasmodium falciparum (isolate CDC / Honduras)) | key= `O=C(N[C@@H](CC1CCCCC1)C(=O)NCCN1CCCC1)c1ccc(O)c(-c2ccc(Cl)c(Cl)c2)c1`
2
